Origin of the recorded values: patent US9359338B2

Catalogue of molecules with associated pIC50
Target: KDR kinase (790-1356 AA) (Homo sapiens (Human), UniProt P35968)
Sequence (P35968 790-1356): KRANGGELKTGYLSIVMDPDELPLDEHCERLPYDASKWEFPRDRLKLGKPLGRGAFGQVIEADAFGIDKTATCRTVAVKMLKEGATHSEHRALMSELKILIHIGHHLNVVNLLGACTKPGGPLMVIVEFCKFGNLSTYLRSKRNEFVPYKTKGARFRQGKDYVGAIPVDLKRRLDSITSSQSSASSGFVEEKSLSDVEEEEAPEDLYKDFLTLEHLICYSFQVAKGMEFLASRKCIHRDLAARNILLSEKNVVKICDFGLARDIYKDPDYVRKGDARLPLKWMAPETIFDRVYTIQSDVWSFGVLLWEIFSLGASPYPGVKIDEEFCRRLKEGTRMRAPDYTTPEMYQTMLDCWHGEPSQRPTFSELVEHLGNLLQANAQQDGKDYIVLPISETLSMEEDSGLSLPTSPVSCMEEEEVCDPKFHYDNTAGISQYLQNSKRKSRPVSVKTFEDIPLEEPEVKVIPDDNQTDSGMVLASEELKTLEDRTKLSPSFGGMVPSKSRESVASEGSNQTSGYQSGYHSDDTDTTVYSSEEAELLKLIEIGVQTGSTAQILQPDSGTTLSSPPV
Worth noting: pIC50 values are minus log10 of concentrations stated in mol/L.

MOLECULE: Nc1cc(NC(=O)Nc2ccc(Oc3ccnc(NC(=O)C4CC4)c3)c(F)c2)cc(C(F)(F)F)c1
pIC50: 8.01
//
MOLECULE: CC1CN(c2cc(NC(=O)Nc3ccc(Oc4ccnc(NC(=O)C5CC5)c4)c(F)c3)cc(C(F)(F)F)c2)CCO1 (stereo not shown)
pIC50: 8.17
//
MOLECULE: Cc1ccc(Oc2ccnc(NC(=O)C3CC3)c2)cc1NC(=O)Nc1cc(C(C)(F)F)ccc1F
pIC50: 7.76
//
MOLECULE: O=C(Nc1cnc(Oc2ccnc(NC(=O)C3CC3)c2)c(F)c1)Nc1ccc(Cl)c(C(F)(F)F)c1
pIC50: 7.83
//
MOLECULE: Cc1cc(Oc2cc(NC(=O)C3CC3)ncn2)ccc1NC(=O)Nc1cccc(OC(F)(F)F)c1
pIC50: 7.85
//
MOLECULE: COCC(=O)Nc1cc(NC(=O)Nc2ccc(Oc3ccnc(NC(=O)C4CC4)c3)c(F)c2)cc(C(F)(F)F)c1
pIC50: 7.74

Query: Lookup: pIC50 / KDR kinase (790-1356 AA) (Homo sapiens (Human), UniProt P35968) / Cc1cc(Oc2ccnc(NC(=O)C3CC3)c2)ccc1NC(=O)Nc1cc(F)cc(C(F)(F)F)c1
Result: 7.76

Query: Lookup: pIC50 / KDR kinase (790-1356 AA) (Homo sapiens (Human), UniProt P35968) / Cc1cc(NC(=O)Nc2ccc(Cl)c(C(F)(F)F)c2)cnc1Oc1ccnc(NC(=O)C2CC2)c1
Result: 7.53

Query: Lookup: pIC50 / KDR kinase (790-1356 AA) (Homo sapiens (Human), UniProt P35968) / CC(C)N1CCN(c2cc(NC(=O)Nc3ccc(Oc4ccnc(NC(=O)C5CC5)c4)c(F)c3)cc(C(F)(F)F)c2)CC1
Result: 7.82

Query: Lookup: pIC50 / KDR kinase (790-1356 AA) (Homo sapiens (Human), UniProt P35968) / O=C(Nc1cccc(Oc2cc(NC(=O)C3CC3)ncn2)c1)Nc1ccc(F)c(C(F)(F)F)c1
Result: 7.83

Query: Lookup: pIC50 / KDR kinase (790-1356 AA) (Homo sapiens (Human), UniProt P35968) / Cc1ccc(NC(=O)Nc2ccc(Oc3ccnc(NC(=O)C4CC4)c3)c(F)c2)cc1C(F)(F)F
Result: 7.95
